biological target: Induced myeloid leukemia cell differentiation protein Mcl-1 (Homo sapiens, UniProt Q07820); experiment: Binding affinity to human Mcl1 by isothermal titration calorimetry
Sequence (Q07820 whole entry): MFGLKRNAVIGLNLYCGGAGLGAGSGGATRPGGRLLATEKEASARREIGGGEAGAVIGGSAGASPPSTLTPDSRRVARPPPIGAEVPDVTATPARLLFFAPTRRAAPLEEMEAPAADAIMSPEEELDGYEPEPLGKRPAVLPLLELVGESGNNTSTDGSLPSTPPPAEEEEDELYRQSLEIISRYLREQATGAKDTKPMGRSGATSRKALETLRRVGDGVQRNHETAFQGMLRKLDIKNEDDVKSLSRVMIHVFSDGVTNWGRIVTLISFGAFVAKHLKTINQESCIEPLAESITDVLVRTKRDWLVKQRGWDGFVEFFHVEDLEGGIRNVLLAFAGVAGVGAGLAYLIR
Kd values for the molecules below.

{"columns": ["Molecule", "Reading"],
 "data": [
  ["CC(C)C(C(=O)O)N1C(=O)/C(=C/c2ccc(Br)cc2)SC1=S (stereo not drawn)", "84 µM"],
  ["COc1cccc(-c2ccc(/C=C3\\SC(=S)N([C@@H](Cc4ccccc4)C(=O)O)C3=O)cn2)c1OC", "0.25 µM"]
]}

Continue with the next molecule.
Q) // query Kd value for entry "COc1ccc(-c2ccc(/C=C3\SC(=S)N([C@@H](Cc4ccccc4)C(=O)O)C3=O)cn2)cc1OC"
A) 10 µM
